// data source = ChEMBL document CHEMBL1142700

Test system: Ishikawa
method-description: Inhibitory constant against stimulation of alkaline phosphatase activity in Ishikawa cells; weak mixed agonist/antagonist
Type: functional, cell-based, Homo sapiens
assay-readout: Ki

[
  {
    "compound": "C[C@]12C[C@H](COCCF)[C@@H]3c4ccc(O)cc4CC[C@H]3[C@@H]1CC[C@@H]2O",
    "test-target": "Ishikawa",
    "observed": "Partial agonist"
  },
  {
    "compound": "CCNC(=O)CC[C@H]1C[C@]2(C)[C@@H](O)CC[C@H]2[C@@H]2CCc3cc(O)ccc3[C@@H]12",
    "test-target": "Ishikawa",
    "observed": "Partial agonist"
  },
  {
    "compound": "CCC(=O)C[C@H]1C[C@]2(C)[C@@H](O)CC[C@H]2C2CCc3cc(O)ccc3[C@H]21 (single isomer, unassigned)",
    "test-target": "Ishikawa",
    "observed": "Partial agonist"
  },
  {
    "compound": "CNC(=O)CC[C@H]1C[C@]2(C)[C@@H](O)CC[C@H]2[C@@H]2CCc3cc(O)ccc3[C@@H]12",
    "test-target": "Ishikawa",
    "observed": "Partial agonist"
  }
]

====

test-target: Estrogen receptor (Rattus norvegicus) (UniProt P06211+Q62986)
method-description: Relative binding affinity for estrogen receptor of rat uterine cytosol
Assay type: protein assay
Would you please tag the item y when its RBA is 4% or above, and n when it is below?

Check out these entries, answers already filled in.
[
  {
    "molecule": "CNC(=O)CC[C@H]1C[C@]2(C)[C@@H](O)CC[C@H]2[C@@H]2CCc3cc(O)ccc3[C@@H]12",
    "category-label": "n"
  },
  {
    "molecule": "CCCOCC[C@H]1C[C@]2(C)[C@@H](O)CC[C@H]2C2CCc3cc(O)ccc3[C@H]21 (single isomer, unassigned)",
    "category-label": "y"
  }
]

Moving on to another molecule below.
### Prompt Answer whether RBA of CCNC(=O)CC[C@H]1C[C@]2(C)[C@@H](O)CC[C@H]2[C@@H]2CCc3cc(O)ccc3[C@@H]12 is greater than or equal to 4%.
### Response n

====

test-target: Estrogen receptor beta (Homo sapiens) (UniProt Q92731)
Sequence (Q92731 whole entry, the tested form may be a part): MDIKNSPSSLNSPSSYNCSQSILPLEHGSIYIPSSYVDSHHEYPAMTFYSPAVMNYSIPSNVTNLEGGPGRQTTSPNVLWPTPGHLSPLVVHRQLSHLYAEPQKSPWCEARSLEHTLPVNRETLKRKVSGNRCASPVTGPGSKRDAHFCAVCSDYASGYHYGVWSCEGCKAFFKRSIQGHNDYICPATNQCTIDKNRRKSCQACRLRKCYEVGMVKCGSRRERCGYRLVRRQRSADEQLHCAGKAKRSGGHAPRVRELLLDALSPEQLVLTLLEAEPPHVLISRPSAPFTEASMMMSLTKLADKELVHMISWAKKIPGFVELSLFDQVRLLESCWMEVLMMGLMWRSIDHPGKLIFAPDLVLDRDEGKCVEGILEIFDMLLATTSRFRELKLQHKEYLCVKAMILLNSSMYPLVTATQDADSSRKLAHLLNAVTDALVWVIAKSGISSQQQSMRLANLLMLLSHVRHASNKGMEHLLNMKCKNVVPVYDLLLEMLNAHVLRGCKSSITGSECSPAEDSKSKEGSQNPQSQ
method-description: Inhibition of [3H]E2 binding to human Estrogen receptor-beta ligand binding domain (LBD) expressed in Escherichia coli lysates
Lab note: anything with RBA below 90% is marked TRUE; values at 90% or higher are marked FALSE.

Check out these entries, answers already filled in.
[
  {
    "molecule": "CCCCO[C@H]1C[C@]2(C)[C@@H](O)CC[C@H]2[C@@H]2CCc3cc(O)ccc3[C@H]21",
    "category-label": "TRUE"
  },
  {
    "molecule": "CC(C)OCCC[C@H]1C[C@]2(C)[C@@H](O)CC[C@H]2[C@@H]2CCc3cc(O)ccc3[C@@H]12",
    "category-label": "FALSE"
  },
  {
    "molecule": "CCOCC[C@H]1C[C@]2(C)[C@@H](O)CC[C@H]2C2CCc3cc(O)ccc3[C@H]21 (single isomer, unassigned)",
    "category-label": "TRUE"
  },
  {
    "molecule": "CC(C)OCC[C@H]1C[C@]2(C)[C@@H](O)CC[C@H]2C2CCc3cc(O)ccc3[C@H]21 (single isomer, unassigned)",
    "category-label": "TRUE"
  },
  {
    "molecule": "CCCOC[C@H]1C[C@]2(C)[C@@H](O)CC[C@H]2[C@@H]2CCc3cc(O)ccc3[C@@H]12",
    "category-label": "FALSE"
  }
]

Moving on to another molecule below.
### Prompt Determine whether this molecule shows RBA lower than 90% (ties excluded): CCOCCC[C@H]1C[C@]2(C)[C@@H](O)CC[C@H]2[C@@H]2CCc3cc(O)ccc3[C@@H]12
### Response TRUE

====

System: Ishikawa
method-description: Inhibitory constant against stimulation of alkaline phosphatase activity in Ishikawa cells
Assay type: functional, cell-based, Homo sapiens
Lab note: anything with Ki below 2 nM is marked satisfied; values at 2 nM or higher are marked not satisfied.

### Prompt Determine whether this compound shows Ki lower than 2 nM (ties excluded): CCCC(=O)CC[C@H]1C[C@]2(C)[C@@H](O)CC[C@H]2[C@@H]2CCc3cc(O)ccc3[C@@H]12
### Response not satisfied

====

Test system: Ishikawa
method-description: Inhibitory constant against stimulation of alkaline phosphatase activity in Ishikawa cells
Assay type: functional, cell-based, Homo sapiens
assay-readout: pKi
Scale: pKi equals -log10([C]), with [C] in mol/L.

Answered examples (4):
[
  {
    "compound": "CCOCCC[C@H]1C[C@]2(C)[C@@H](O)CC[C@H]2[C@@H]2CCc3cc(O)ccc3[C@@H]12",
    "pKi": 9.52
  },
  {
    "compound": "C[C@]12C[C@H](CCOCCF)[C@@H]3c4ccc(O)cc4CCC3[C@@H]1CC[C@@H]2O (single isomer, unassigned)",
    "pKi": 7.26
  },
  {
    "compound": "CCCC(=O)C[C@H]1C[C@]2(C)[C@@H](O)CC[C@H]2C2CCc3cc(O)ccc3[C@H]21 (single isomer, unassigned)",
    "pKi": 8.51
  },
  {
    "compound": "CCOCC[C@H]1C[C@]2(C)[C@@H](O)CC[C@H]2C2CCc3cc(O)ccc3[C@H]21 (single isomer, unassigned)",
    "pKi": 9.52
  }
]

# context switch: different compound, same pKi
### Prompt # get_value(readout='pKi', item= CC(C)OCCC[C@H]1C[C@]2(C)[C@@H](O)CC[C@H]2[C@@H]2CCc3cc(O)ccc3[C@@H]12 )
### Response 9.70

====

test-target: Estrogen receptor (Homo sapiens) (UniProt P03372)
Sequence (whole entry): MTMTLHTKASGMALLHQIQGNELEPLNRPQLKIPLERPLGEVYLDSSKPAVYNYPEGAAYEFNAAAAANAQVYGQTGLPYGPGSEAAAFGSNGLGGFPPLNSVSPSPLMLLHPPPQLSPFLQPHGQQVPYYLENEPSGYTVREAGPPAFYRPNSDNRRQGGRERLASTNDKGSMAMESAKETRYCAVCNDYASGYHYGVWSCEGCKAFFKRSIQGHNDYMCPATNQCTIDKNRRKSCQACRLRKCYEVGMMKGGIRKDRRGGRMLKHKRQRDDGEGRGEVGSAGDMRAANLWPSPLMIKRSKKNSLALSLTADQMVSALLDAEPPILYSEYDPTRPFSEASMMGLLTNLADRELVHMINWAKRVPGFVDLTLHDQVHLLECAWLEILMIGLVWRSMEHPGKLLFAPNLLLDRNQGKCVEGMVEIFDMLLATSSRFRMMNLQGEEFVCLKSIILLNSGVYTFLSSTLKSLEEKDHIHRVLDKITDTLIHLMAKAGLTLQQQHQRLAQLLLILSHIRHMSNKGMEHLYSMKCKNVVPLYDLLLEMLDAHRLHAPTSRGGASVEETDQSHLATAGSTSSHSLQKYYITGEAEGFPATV
method-description: Inhibition of [3H]E2 binding to human Estrogen receptor-alpha ligand binding domain (LBD) expressed in Escherichia coli lysates
RBA overview
Entry rule: numbers only, all in %.

Answered examples (4):
[
  {
    "molecule": "C[C@]12C[C@H](COCCF)[C@@H]3c4ccc(O)cc4CC[C@H]3[C@@H]1CC[C@@H]2O",
    "unit-of-measurement": "%",
    "observed": 27
  },
  {
    "molecule": "COCC[C@H]1C[C@]2(C)[C@@H](O)CC[C@H]2C2CCc3cc(O)ccc3[C@H]21 (single isomer, unassigned)",
    "unit-of-measurement": "%",
    "observed": 67
  },
  {
    "molecule": "CCOCC[C@H]1C[C@]2(C)[C@@H](O)CC[C@H]2C2CCc3cc(O)ccc3[C@H]21 (single isomer, unassigned)",
    "unit-of-measurement": "%",
    "observed": 49
  },
  {
    "molecule": "CCCOC[C@H]1C[C@]2(C)[C@@H](O)CC[C@H]2[C@@H]2CCc3cc(O)ccc3[C@@H]12",
    "unit-of-measurement": "%",
    "observed": 146
  }
]

### Prompt # get_value(readout='RBA', item= CC(C)(C)OCCC[C@H]1C[C@]2(C)[C@@H](O)CC[C@H]2[C@@H]2CCc3cc(O)ccc3[C@@H]12 )
### Response 128

### Prompt # get_value(readout='RBA', item= CCCCO[C@H]1C[C@]2(C)[C@@H](O)CC[C@H]2[C@@H]2CCc3cc(O)ccc3[C@H]21 )
### Response 7.5

### Prompt # get_value(readout='RBA', item= CCCCOC[C@H]1C[C@]2(C)[C@@H](O)CC[C@H]2[C@@H]2CCc3cc(O)ccc3[C@@H]12 )
### Response 102

====

RBA overview
test-target: Estrogen receptor (Rattus norvegicus) (UniProt P06211+Q62986)
method-description: Relative binding affinity for estrogen receptor of rat uterine cytosol
Type: protein assay
Entry rule: numbers only, all in %.

Answered examples (3):
[
  {
    "compound": "CC(C)(C)COC(=O)C[C@H]1C[C@]2(C)[C@@H](O)CC[C@H]2C2CCc3cc(O)ccc3[C@H]21 (single isomer, unassigned)",
    "unit-of-measurement": "%",
    "RBA": 10
  },
  {
    "compound": "COC[C@H]1C[C@]2(C)C(O)CC[C@H]2[C@@H]2CCc3cc(O)ccc3[C@@H]12 (stereo not given in full)",
    "unit-of-measurement": "%",
    "RBA": 20
  },
  {
    "compound": "COCC[C@H]1C[C@]2(C)[C@@H](O)CC[C@H]2C2CCc3cc(O)ccc3[C@H]21 (single isomer, unassigned)",
    "unit-of-measurement": "%",
    "RBA": 25
  }
]

# context switch: different compound, same RBA
### Prompt # get_value(readout='RBA', item= CC(=O)CC[C@H]1C[C@]2(C)[C@@H](O)CC[C@H]2[C@@H]2CCc3cc(O)ccc3[C@@H]12 )
### Response 1
